biological target: SARS-CoV-2 receptor-binding domain (RBD), wild type (SARS-CoV-2, UniProt P0DTC2, DyLight 488 (NHS ester, about 1.9 dye/protein) in the FRET assay only)
ASSAY ENDPOINT: binding result

WNb 13 (VHH) VHH: QVQLQESGGGLVQPGGSLRLSCAASGFTFSSYAMGWFRQVPGKGLEWVSGIYSDGSTYYADSVKGRFTISRDNAKNTVYLQMNSLKPEDTAVYYCATDRMAGSRWPERDFGSWGQGTQVTVSS    binds
WNb 6 (VHH) VHH: QVQLQESGGGLVQPGGSLRLSCAASGFTFSSYAMGWFRQVPGKGLEWVSGIYSDGSTYYADSVKGRFTISRDNAKNTLYLQMNSLKPEDTAVYYCAKDRLEGSSRPERDFGSWGQGTQVTVSS    binds
